- subject.of.test: human nociceptin receptor (ORL-1) (Homo sapiens)
- Construct: expressed in transfected cells
- Sequence (P41146 whole entry): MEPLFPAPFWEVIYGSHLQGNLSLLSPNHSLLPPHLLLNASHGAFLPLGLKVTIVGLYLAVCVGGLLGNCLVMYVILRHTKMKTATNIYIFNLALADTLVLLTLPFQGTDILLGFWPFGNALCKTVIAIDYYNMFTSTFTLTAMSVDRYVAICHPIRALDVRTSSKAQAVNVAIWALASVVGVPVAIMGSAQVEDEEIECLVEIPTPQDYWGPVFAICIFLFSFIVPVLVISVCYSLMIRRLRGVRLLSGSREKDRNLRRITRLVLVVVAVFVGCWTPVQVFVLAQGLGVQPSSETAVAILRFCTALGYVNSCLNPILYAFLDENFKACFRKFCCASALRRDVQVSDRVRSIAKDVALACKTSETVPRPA
- test.summary: Nociceptin receptor binding assay: binding of 125I-Tyr14-nociceptin to ORL-1 on HEK-293 cell membranes
- conditions.used: competition with 0.5 nM 125I-Tyr14-nociceptin, HEK-293 cell membranes; 3 experiments in duplicate
pKi: −log10 of the molar value. No end group written: not given here.
Assign 1 to entries whose pKi meets or exceeds 8; assign -1 to the rest.

FGGFTGARKSAKKLANQ [Peptide R12K]; 1
AGGFTGARKSARKLANQ [Peptide F1A]; -1
FGGFTGARKSLRKLANQ [Peptide A11L]; 1
FGGFTGARKSARKLANA [Peptide Q17A]; 1
FGGATGARKSARKLANQ [Peptide F4A]; -1
FGGFTAARKSARKLANQ [Peptide G6A]; 1
FGGFTGAAKSARKLANQ [Peptide R8A]; -1
FGGFSGARKSARKLANQ [Peptide T5S]; 1
FGGFTGARKSARKLGNQ [Peptide A15G]; 1
FGGFTGARKSARKAANQ [Peptide L14A]; 1
FGGFTGARKSARKLAAQ [Peptide N16A]; 1

* * *

EC50(x)/EC50(WT) overview
- subject.of.test: ORL1 (Homo sapiens)
- Sequence (P41146 whole entry): as above
- test.summary: Calcium flux (FLIPR) in carbachol-sensitized HEK-293 cells expressing ORL-1 receptor
- Type: cell-based
- Set-up: expressed in transfected cells; host or cells: HEK-293 cells expressing ORL-1 receptor
- conditions.used: ratio of variant EC50 to nociceptin EC50
No end group written: not given here.
metric.name: EC50(x)/EC50(WT)

FGGFTGSRKSARKLANQ [Peptide A7S]; 2.3
FGGFTGARKSSRKLANQ [Peptide A11S]; 0.5
FGGATGARKSARKLANQ [Peptide F4A]; 1617
FGGFTGAAKSARKLANQ [Peptide R8A]; 29
FGGFTGARKSAAKLANQ [Peptide R12A]; 0.5
FAGFTGARKSARKLANQ [Peptide G2A]; 581
FGGFTGARKSLRKLANQ [Peptide A11L]; 3.5
FGGFTGARKSARALANQ [Peptide K13A]; 0.5
FGGFTGARKSARKLGNQ [Peptide A15G]; 0.8
FGGFAGARKSARKLANQ [Peptide T5A]; 66
FGGFTGLRKSARKLANQ [Peptide A7L]; 5.2
FGGFTGARKSGRKLANQ [Peptide A11G]; 4.8
AGGFTGARKSARKLANQ [Peptide F1A]; 601

* * *

pEC50 overview
- subject.of.test: ORL1 (Homo sapiens)
- test.summary: Calcium flux (FLIPR) in carbachol-sensitized HEK-293 cells expressing ORL-1 receptor
- Assay type: cell-based
- Parameters: expressed in transfected cells; host or cells: HEK-293 cells expressing ORL-1 receptor
- conditions.used: HEK-293 cells expressing ORL-1, pretreated with 100 μM carbachol; read-out: EC50 (calcium release)
pEC50: −log10 of the molar value. No end group written: not given here.
metric.name: pEC50

FGGFTGARKSARKLGNQ [Peptide A15G]; 8.72
FGGFLGARKSARKLANQ [Peptide T5L]; 7.85
FGGFTGAAKSARKLANQ [Peptide R8A]; 7.16
FGGFTGARKSARKLANA [Peptide Q17A]; 7.92
FGGFTGSRKSARKLANQ [Peptide A7S]; 8.25
FAGFTGARKSARKLANQ [Peptide G2A]; 5.86
FGGFTGARKSARALANQ [Peptide K13A]; 8.96
